Please respond with reported melting point for every item in the list.

CC(=O)c1csc(-c2ccncc2)c1C [Example 27, 4-Acetyl-3-methyl-2-(4-pyridyl)thiophene]: 87 to 87.5 °C
O=C1CCc2c(Cl)sc(-c3ccncc3)c21 [Example 54]: 163 to 165 °C
Cc1c(-c2ccncc2)sc(-c2ccncc2)c1C=O [Example 34]: 139 to 139.5 °C
CC(=O)c1c(C)oc(-c2ccncc2)c1C [Example 1, 3-Acetyl-2,4-dimethyl-5-(4-pyridyl)furan]: 65 to 66.5 °C
Cc1c(-c2ccncc2)oc2c1C(=O)OC(C)C2 (stereo not drawn) [Example 10]: 157 to 160 °C

I would be grateful if you could provide melting point for each of the following entries.
1. CC(=O)c1cc(-c2ccncc2)sc1Oc1ccc(F)cc1 [Example 62]
2. CCOC(=O)CCc1cc(-c2ccncc2)sc1-c1ccncc1.Cl.Cl
3. CCc1c(-c2ccncc2)oc2c1C(=O)CCC2(C)C [Example 11]
4. O=C1CCc2c(-c3ccncc3)sc(-c3ccc(F)cc3)c21 [Example 58]
5. CC(=O)c1cc(-c2ccncc2)sc1Oc1ccccc1 [Example 42]
6. O=C1CCc2c(-c3ccncc3)sc(-c3ccc(C(F)(F)F)cc3)c21 [Example 66]
7. NC(=O)c1cc(-c2ccncc2)sc1-c1ccncc1 [Example 59, 2,5-Di(4-pyridyl)-3-thiophenecarboxamide]
8. CC(=O)c1c(-c2ccncc2)sc(Cl)c1C [Example 17]

Ans:
1. 147 to 149 °C
2. 205 to 208 °C (dec.)
3. 86 to 88 °C
4. 193 to 195 °C
5. 103 to 105 °C
6. 158 to 160 °C
7. 240 to 242 °C
8. 60 to 61 °C

I would be grateful if you could provide melting point for each of the following entries.
1. CC(=O)c1c(-c2ccc(F)cc2)sc(-c2ccncc2)c1C [Example 32]
2. CC(=O)c1sc2sc(-c3ccncc3)c(C)c2c1C [Example 43]

Ans:
1: 116 to 118 °C; 2: 171 to 173 °C
